experiment: NCI Yeast Anticancer Drug Screen. Data for the wt1 strain (AID 149);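 further: 0% = growth of vehicle-treated wt1 cultures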; settings: S. cerevisiae wt1 strain (SPY 50644) growth inhibition; at 100.0 µM; active compounds read high
About 79,000 compounds went through this panel and 15% of them were active in at least one assay; those are over-represented in the sample as a whole.
Parameter: growth inhibition (%)

| Compound | Parameter | Value measured |
| --- | --- | --- |
| Cc1nc(-c2cc3cc([N+](=O)[O-])ccc3oc2=O)cs1 | growth inhibition | 92 |
| O=C(/C=C(/c1ccccc1)N1CCCCC1)c1ccccc1 | growth inhibition | 94 |
| CC(C)OC(=O)c1ccc(CCc2cc(O)c(Br)cc2O)cc1 | growth inhibition | 98 |
| COc1ccc([N+](=O)[O-])c2c(NCCCN(C)C)c3ccccc3nc12 | growth inhibition | 23 |
| O=C(CC(=O)n1nc(-c2ccccc2)c(N=Nc2ccc(Cl)cc2)c1-c1ccccc1)Nc1cccc(Cl)c1 | growth inhibition | -5 |
| N#CC(C#N)=NNc1ccc(S(=O)(=O)O)cc1 | growth inhibition | -3 |
| Cc1nc2c(Br)cc(Br)cc2c(=O)n1-c1ccccc1NC1OCC(O)C(O)C1O (stereo not drawn) | growth inhibition | 93 |
| CCCCCCOC(=O)NCCOC(=O)Nc1ccccc1 | growth inhibition | 1 |
| CCC1(OC(=O)CN2CCN(CCO)CC2)C(=O)OCc2c1cc1n(c2=O)Cc2cc3ccccc3nc2-1 (stereo not drawn) | growth inhibition | 7 |
| CC(C)(CCCCC(C)(C)[N+](C)(C)C)[N+](C)(C)C | growth inhibition | 1 |
| CN(C)CCNC(=O)c1cccc2cc([N+](=O)[O-])ccc12 | growth inhibition | 93 |
| O=c1[nH]c2ccc(Cl)cc2o1 | growth inhibition | -23 |
| Cc1cc(S(=O)(=O)Nc2nnc3cnc4ccccc4n23)c(S)cc1Cl | growth inhibition | 28 |
| c1ccc2c(OCC3CO3)cccc2c1 (stereo not drawn) | growth inhibition | 18 |
| O=C(Oc1ccc2c(c1)CN(Cc1ccccc1)CO2)c1ccccc1 | growth inhibition | 10 |
| CCc1ccc2c(c1)N(CC(C)CN(C)C)c1ccccc1S2 (stereo not drawn) | growth inhibition | 32 |
| Cn1c(=O)c2c(nc(N)n2C2OC(CO)C(O)C2O)n(C)c1=O (stereo not drawn) | growth inhibition | 1 |
| O=c1ccc(=O)n(-c2ccccc2)[nH]1 | growth inhibition | 95 |
| Clc1ccc(NCNC2Nc3ccccc3N2)cc1Cl | growth inhibition | 99 |
| CCOC1=C/C(=N\Nc2ccc([N+](=O)[O-])cc2)CCC1 | growth inhibition | 18 |
| Cc1c(-c2ccccn2)ccc2ccccc12 | growth inhibition | 18 |
| COc1ccc2[nH]cc([C@@H]3C4CCC(C4)[C@H]3NCc3cccc(CN[C@H]4C5CCC(C5)[C@@H]4c4c[nH]c5ccc(OC)cc45)c3)c2c1 | growth inhibition | 93 |
| CCc1nc2ccc(NCCN(C)C)c3c(=O)c4ccccc4n1c23 | growth inhibition | 22 |
